// data source = PubChem BioAssay (NCI)

tested on: HL-60(TB) leukemia; test: NCI-60 one-dose screen, 48 h; settings: 10 µM unless noted
This is part of a sample that, as a whole, favours compounds with a hit. Of some 83,000 tested, about 20% had one in any assay. Activity calls are given as the source filed them. The calls were made as follows: active = growth percent below 10; inactive = the rest.
Your answer must be one of the following: active, inactive

Task: Which outcome was assigned to COc1ccc(C2=NN(C(=O)c3cc(OC)c(OC)c(OC)c3)C(c3ccc(C#N)cc3)C2)cc1OC (stereo not given) in this test?
Result: active

Task: Recorded test call requested for CN1Cn2c(ccc2C(F)(F)F)C(=O)CS1(=O)=O
Result: inactive

Task: Dear colleague, could you share the recorded outcome for CCCCCCCCCCCCCCCCNCCC[C@@H](C)[C@H]1CC[C@H]2[C@@H]3[C@H](OCCCN)C[C@@H]4C[C@H](OCCCN)CC[C@]4(C)[C@H]3C[C@H](OCCCN)[C@]12C when you have a moment?
Result: active

Task: Dear all, I need the recorded test outcome for NS(=O)(=O)c1ccc(-n2nc(C(=O)N/N=C\c3ccc(F)cc3)cc2-c2ccc(Br)cc2)cc1 , thank you.
Result: inactive

Task: Which outcome was entered for the molecule C[C@@H]1N=C(c2ccc3ccccc3c2)Nc2nc3ccccn3c2C1=O in this test?
Result: active

Task: Called result for O=C1C=CC(=O)C2=C1CCCC2
Result: inactive

Task: Query: recorded result category for CCCCNc1ccc(-c2ccc(NCCCC)cc2)cc1 in this test
Result: inactive

Task: Returns: the outcome recorded for CN(C)S(=O)(=O)n1cnc([C@@H]2[C@@H]3C(=O)OC[C@@H]3C[C@]23N=CN(Cc2ccccc2)C3=O)c1 in this assay.
Result: inactive

Task: What is the recorded call for this molecule in the test? COC1=C(OC)C(=O)C(OC)=C(OC)C1=O
Result: inactive

Task: Please let me know the test result on file for CCOC(=O)c1[nH]c(-c2ccc(Cl)cc2)cc1-c1cccnc1 .
Result: active

Task: // param item: NC(=N\N=C\c1ccccc1O)/C(N)=N/N=C/c1ccccc1O ; yields the recorded call
Result: inactive

Task: Recorded test outcome, item COc1cccc(/C=C2\C=C(c3ccccc3)N(Cc3ccccc3)C2=O)c1
Result: inactive

Task: Assay result, entry N#CCNc1ccc(C(=O)O)cc1 — outcome?
Result: inactive

Task: // outcome(item) with item = O=[N+]([O-])c1ccc(N/N=C/c2ccccc2O)nc1
Result: active

Task: Name the outcome recorded for COC[C@H](C)n1c(C2CCOCC2)nc2cnc3cc(-c4c(C)noc4C)c(OC)cc3c21 in the assay.
Result: inactive

Task: What did this assay record as the result for C=CCn1c(SCC(=O)Nc2ccc(C(=O)/C=C/c3cc(OC)c(OC)c(OC)c3)cc2)nnc1-c1ccc(Cl)cc1 ?
Result: inactive

Task: Called result for COc1ccc(-c2[nH]ncc2-c2cc3c(c(OC)c2)OCC(=O)N3)cc1
Result: inactive

Task: Which outcome was assigned to COc1ccc(/C=C2\COc3ccc(O)cc3C2=O)c(OC)c1 in this test?
Result: inactive

Task: Returns: the outcome recorded for C=C1C(=O)O[C@H]2[C@H]1CC/C(COC(=O)C(C)c1ccc(CC(C)C)cc1)=C\CC[C@@]1(C)O[C@@H]21 (stereo not given in full) in this assay.
Result: active

Task: // outcome(item) with item = CCOC(=O)C1=C(C)NC(C)=C(C(=O)OCC)C1(C)C
Result: inactive

###

system: HL-60(TB) leukemia; assay: NCI-60 one-dose screen, 48 h; conditions: 10 µM unless noted
The panel holds about 83,000 compounds, 20% with a hit somewhere; the sample as a whole holds those more often. Calls of active or inactive are those of the source. How the source made its calls: active means growth percent below 10; inactive means the rest.
API: response.call in active, inactive

Task: Fill in: this test's call for COc1cc(/C=C/C(=O)/C=C/c2ccc(-n3ccnc3C)cc2)ccc1O is ___
Result: inactive

Task: Could you kindly confirm the outcome this assay logged for COc1ccc(-c2nc(-c3ccccc3)c(-c3ccccc3)[nH]2)cc1OC1CCCCC1 ?
Result: inactive

Task: Kindly provide the recorded test outcome for the following compound: NC(CSC(c1ccccc1)(c1ccccc1)c1ccc(Cl)cc1)C(=O)O (configuration not stated)
Result: active

Task: Could you kindly confirm the outcome this assay logged for COc1cc(C2=NNC(c3ccc(N(C)C)cc3)C2)cc(OC)c1OC (configuration not stated) ?
Result: active

Task: What did the test return for c1ccc(-c2ccc3ccccc3[o+]2)cc1 ?
Result: inactive

Task: Outcome logged for CCC1=C[C@H]2CN(CCc3c([nH]c4ccccc34)[C@@](C(=O)OC)(c3cc4c(cc3OC)N(C)[C@H]3[C@@](O)(C(=O)OC)[C@H](OC(C)=O)[C@]5(CC)[C@@H]6C[C@@H]6CN6CC[C@]43[C@@H]65)C2)C1 in this assay:
Result: active

Task: What call does the record list for Cc1cc(C(=O)Nc2cc(Oc3ccc4nc(NC(=O)C5CC5)cn4n3)ccc2C)n(C)n1 ?
Result: active

Task: Hello, I am checking results. What call was entered for C=C(C)[C@@H]1CC[C@]2(C(N)=O)CC[C@]3(C)[C@H](CC[C@@H]4[C@@]5(C)CC[C@H](OCCC#N)C(C)(C)[C@@H]5CC[C@]43C)[C@@H]12 ?
Result: inactive

Task: Fill in: this test's call for COc1ccc(NC(=O)/C=C/c2ccc(Cl)c(Cl)c2)cn1 is ___
Result: inactive

Task: Given CC(C)=CC(=O)OCC(=O)O[C@@H]1C[C@]2(C(C)C)O[C@@]1(C)[C@@H]1CC[C@@H](C)[C@H]1[C@@H]2OC(=O)/C=C/c1ccccc1 , state the outcome it received in this test.
Result: inactive

Task: Could you please tell me the result logged for CCCCC(C=O)(C=C=C(C)C)CC (configuration not stated) in this assay?
Result: inactive

Task: For O=S(=O)(O)CCl , what call appears in the results of this test?
Result: inactive

Task: Answer briefly: the call reported for CCCCCCn1c(=N)n(CC(O)COc2cccc(C)c2)c2ccccc21 (configuration not stated) in this assay.
Result: active

Task: Per the records of this test, what outcome belongs to C[C@H]1[C@H](C)CC[C@]2(C(=O)OCCCC[P+](c3ccccc3)(c3ccccc3)c3ccccc3)CC[C@]3(C)C(=CC[C@@H]4[C@@]5(C)CC[C@H](OC(=O)C(Cl)Cl)C(C)(C)[C@@H]5CC[C@]43C)[C@H]12 ?
Result: active

Task: Called result for c1ccc2c(-c3nc(-c4c[nH]c5ncccc45)cs3)c[nH]c2c1
Result: inactive

Task: So what was the verdict on Cc1cc2c(-c3nc4ccccn4c3N)c(O)c(O)cc2c(O)c1-c1c(C)cc2c(-c3nc4ccccn4c3N)c(O)c(O)cc2c1O in this test?
Result: active

Task: For this compound, state the assay outcome: Cc1ccc(S(=O)(=O)NCCCNc2nccc(-c3c(-c4ccccc4)nc4sccn34)n2)cc1
Result: active

Task: // param item: C=C1N(C)c2ccc(Cl)cc2C1(C)C ; yields the recorded call
Result: active

Task: Short answer needed: outcome of this test for CCn1cc(C(=O)O)c(=O)c2cc(F)c(N3CCN(CC(=O)Nc4ccc(S(=O)(=O)Nc5nccc(C)n5)cc4)C(C)C3)c(F)c21 (configuration not stated) ?
Result: inactive

Task: Can you look up the reported call for N#C/C(=C1\SC(=O)CN1c1ccccc1)c1nc2ccccc2s1 for me?
Result: inactive

Task: Tell me the recorded outcome of this test for O=Cc1ccc(Cl)c(Cl)c1 .
Result: inactive

Task: Tell me the recorded outcome of this test for COc1ccc(-c2cc(-c3ccccc3)nc(SCCCCCCC(=O)NO)n2)cc1 .
Result: active

Task: Field: outcome | Entry: O=C(NC(Cc1nnc2n(Cc3ccccc3)c(=O)c3c4c(sc3n12)CCCC4)c1ccc(Cl)cc1)c1ccccc1 (configuration not stated)
Result: inactive

Task: Hello, I am checking results. What call was entered for CCCCN(CCCC)CC(O)c1ccc(OCc2ccccc2)c2ccccc12 (configuration not stated) ?
Result: active

Task: # lookup: test call for O=C(/C(=C/c1ccccc1)CN1CCCCC1)c1ccccc1
Result: active

Task: For this compound, state the assay outcome: O=C(Nc1cccnc1Nc1ccccc1)c1cn(Cc2cccc(Oc3ccccc3)c2)nn1
Result: inactive

Task: Hey, what did the test say about C=C1C(=O)O[C@H]2[C@H]1CC/C(COC(=O)NCc1ccc(Cn3c(=O)sn(CCCCC)c3=O)cc1)=C\CC[C@@]1(C)O[C@@H]21 ?
Result: active

Task: For COc1cc(N2CCC(N(C)C)CC2)ccc1Nc1ncc(Cl)c(Nc2ccccc2P(C)(C)=O)n1 , which call appears in the assay record?
Result: inactive

Task: Which outcome was assigned to CCNC(=O)Oc1ccc(/C(=C(\C)c2ccc(Cl)cc2)c2ccc(OCCN3CCCCC3)cc2)cc1 in this test?
Result: inactive

Task: Query: recorded result category for C=CCn1c(SCC(=O)Nc2ccc(C(=O)/C=C/c3ccc(Cl)cc3)cc2)nnc1-c1ccc(Cl)c(Cl)c1 in this test
Result: inactive

Task: Answer briefly: the call reported for Cc1ccc(S(=O)(=O)n2cc(C(=O)C(=O)N3CCOCC3)c3ccccc32)cc1 in this assay.
Result: inactive

Task: Any idea what this test logged for CN(C)CCOc1nc2c3ccncc3cc(-c3cccc(Cl)c3)c2c2cnccc12 ?
Result: inactive

Task: Lab log entry: CCCCC1COc2cccc3c(SCC(=O)N(C)c4cccc5ccccc45)cc[n+]1c23 (configuration not stated) — outcome as called in the assay?
Result: inactive

Task: Per the assay record, what outcome was assigned to N#CSc1cc(S(N)(=O)=O)ccc1N ?
Result: inactive

Task: GET /call?item= O=C1/C(=C\c2cccn2C(=O)c2ccccc2)c2ccccc2N1c1c(Cl)cccc1Cl returns the recorded outcome of this test.
Result: active

Task: Could you please tell me the result logged for COc1ccc(C(=O)COc2cccc(/C=C3\CSc4ccc(C)cc4C3=O)c2)cc1 in this assay?
Result: inactive

Task: Which outcome did this test record for the compound COc1cc2cc(c1Cl)N(C)C(=O)C[C@H](OC(=O)[C@H](C)N(C)C(=O)CCS)C[C@]1(C)O[C@H]1[C@H](C)[C@@H]1C[C@@](O)(NC(=O)O1)[C@H](OC)/C=C/C=C(\C)C2 ?
Result: active
